TARGET_OF_ASSAY: T1, recombinant human Aggrecan G1-IGD-G2 (human, UniProt P16112 20-676)
T1 construct: Only the G1-IGD-G2 region was used (R&D Systems 1220-PG is named for the immunogen); also called Hu G1-IGD-G2
TEST_SUMMARY: ELISA on recombinant G1-IGD-G2
MEASURED_QUANTITY: EC50 (nM)
Quick note: give the figure in nM, leave out the unit.

[
  {
    "BINDER": "C01010109 (ALB26-608A05-608A05) (VHH, not shown: small tags and cut ends) VHH 1: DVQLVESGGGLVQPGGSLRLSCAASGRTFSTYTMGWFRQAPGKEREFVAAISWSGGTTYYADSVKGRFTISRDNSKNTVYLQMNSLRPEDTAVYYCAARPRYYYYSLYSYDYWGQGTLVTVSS VHH 2: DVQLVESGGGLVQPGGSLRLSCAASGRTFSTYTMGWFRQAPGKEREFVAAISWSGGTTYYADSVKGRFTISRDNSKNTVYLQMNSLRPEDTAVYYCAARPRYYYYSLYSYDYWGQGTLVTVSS",
    "MEASURED_QUANTITY": "EC50",
    "OBSERVED": 0.1
  },
  {
    "BINDER": "C01010118 (ALB26-114F08-114F08) (VHH, not shown: small tags and cut ends, also called C010100118) VHH 1: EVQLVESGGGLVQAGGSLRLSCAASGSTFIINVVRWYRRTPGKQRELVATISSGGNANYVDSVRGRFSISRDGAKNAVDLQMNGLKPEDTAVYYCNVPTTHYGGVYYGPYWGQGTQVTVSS VHH 2: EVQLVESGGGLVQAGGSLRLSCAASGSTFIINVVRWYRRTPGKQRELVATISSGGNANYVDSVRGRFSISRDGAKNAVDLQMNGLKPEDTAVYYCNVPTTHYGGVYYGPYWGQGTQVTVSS",
    "MEASURED_QUANTITY": "EC50",
    "OBSERVED": 0.11
  }
]

Now examine the next entry.
Query :: For the binder C01010046 (601E08-ALB26) (VHH, not shown: small tags and cut ends) VHH: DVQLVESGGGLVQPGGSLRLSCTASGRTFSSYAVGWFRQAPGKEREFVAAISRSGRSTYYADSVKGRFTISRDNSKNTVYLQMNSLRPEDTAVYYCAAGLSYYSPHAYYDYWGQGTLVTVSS , what EC50 is on record?
Result :: 5.1
